growth overview
- Tested on: HCT-15 colon
- experiment notes: NCI-60 one-dose screen, 48 h (100 = growth as untreated, 0 = no growth, -100 = all killed)
- condition set: 10 µM unless noted
About 83,000 compounds went through this panel and 20% of them were active in at least one assay; those are over-represented in the sample as a whole. The source made the active and inactive calls. How the source made its calls: active means growth percent below 10; inactive means the rest.

[
  {
    "compound": "CCCCN(C)N=Nc1ccc(C(N)=O)cc1",
    "growth": "114% (inactive)"
  },
  {
    "compound": "COc1cc(-c2nc3sccn3c2-c2ccnc(NCCCNS(=O)(=O)c3ccc(F)cc3)n2)ccc1F",
    "growth": "44.8% (inactive)"
  },
  {
    "compound": "CC(=O)Oc1ccccc1C(=O)N=C1[Se]CCCN1C(=O)c1ccccc1OC(C)=O",
    "growth": "21.5% (inactive)"
  },
  {
    "compound": "C=C(C)[C@@H]1CC[C@]2(N=C=O)CC[C@]3(C)[C@H](CC[C@@H]4[C@@]5(C)Cc6c([nH]c7ccccc67)C(C)(C)[C@@H]5CC[C@]43C)[C@@H]12",
    "growth": "47% (inactive)"
  },
  {
    "compound": "CNCCCC12CCC(c3ccccc31)c1ccccc12",
    "growth": "95.4% (inactive)"
  },
  {
    "compound": "CCOC(=O)Nc1ccc(C(=O)/C=C/c2ccccc2)cc1",
    "growth": "85.7% (inactive)"
  },
  {
    "compound": "Cc1cc(-c2cc(C)c(N)cc2C)c(C)cc1N",
    "growth": "73% (inactive)"
  },
  {
    "compound": "O=C(/C=C/c1sc(Cl)nc1Cl)c1ccc(Br)cc1",
    "growth": "32.4% (inactive)"
  },
  {
    "compound": "Cc1ccc(C(=O)NN2C(=O)CSC2c2ccc(Cl)cc2)cn1 (stereo unspecified)",
    "growth": "90.1% (inactive)"
  },
  {
    "compound": "OC(COc1ccccc1Cl)CN1CCN(c2cccc(Cl)c2)CC1 (stereo unspecified)",
    "growth": "97.2% (inactive)"
  },
  {
    "compound": "COc1cc2cc(Oc3ccc(NC(=O)Nc4cccc(C(F)(F)F)c4)cc3)c(C)nc2cc1OCCN1CCOCC1",
    "growth": "27.2% (inactive)"
  },
  {
    "compound": "CC1Cc2ccccc2N1NC(=O)c1ccc(Cl)c(S(N)(=O)=O)c1 (stereo unspecified)",
    "growth": "106% (inactive)"
  },
  {
    "compound": "COc1cc(C(=O)N2N=C(c3ccc(S(C)(=O)=O)cc3)CC2c2ccco2)cc(OC)c1OC (stereo unspecified)",
    "growth": "39.4% (inactive)"
  },
  {
    "compound": "COc1cccc2nc3n(c12)C(c1c(F)cccc1F)SC3 (stereo unspecified)",
    "growth": "101% (inactive)"
  },
  {
    "compound": "C#Cc1cccc(NC(=O)Nc2ccccc2NC(=O)CCl)c1",
    "growth": "-19.8% [8.25 µM] (active)"
  },
  {
    "compound": "CN1CCN(c2ccc(-c3ccc4ncc(C#N)c(Nc5ccc(F)c(Cl)c5)c4c3)cn2)CC1",
    "growth": "13.4% (inactive)"
  }
]

---

- Tested on: UACC-257 melanoma
- experiment notes: NCI-60 one-dose screen, 48 h (100 = growth as untreated, 0 = no growth, -100 = all killed)
- condition set: 10 µM unless noted
About 83,000 compounds went through this panel and 20% of them were active in at least one assay; those are over-represented in the sample as a whole.
Quick list: growth per entry.
measure: growth (%)

[
  {
    "compound": "NCCOc1ncccc1/C=C1\\C2C=CC=CC2C2C=CC(F)=CC12 (configuration not stated)",
    "unit abbrev": "%",
    "endpoint value": 71.7
  },
  {
    "compound": "COc1ccc(C(=O)COC(=O)[C@H](C[Se][Se]C[C@H](NC(=O)c2ccc(Br)cc2F)C(=O)OCC(=O)c2ccc(OC)cc2)NC(=O)c2ccc(Br)cc2F)cc1",
    "unit abbrev": "%",
    "endpoint value": -43.8
  },
  {
    "compound": "N#CC1=C(N)Oc2c(sc3c(Br)cccc23)C1c1ccc(Br)cc1 (configuration not stated)",
    "unit abbrev": "%",
    "endpoint value": 41.4
  },
  {
    "compound": "C#C[C@]1(O)CC[C@H]2[C@@H]3CC=C4c5sc(Nc6cc(F)ccc6F)nc5CC[C@]4(C)[C@H]3CC[C@@]21C",
    "unit abbrev": "%",
    "endpoint value": 0.483
  },
  {
    "compound": "COc1ccc2nc(NCCCNCCO)c3sc4ccc(F)cc4c(=O)c3c2c1",
    "unit abbrev": "%",
    "endpoint value": 95.4
  },
  {
    "compound": "O=C(Nc1ccc(Cl)cc1F)c1ccccc1O",
    "unit abbrev": "%",
    "endpoint value": 14.1
  },
  {
    "compound": "c1cc(NCCc2ccncc2)nc(-n2cnc3ccccc32)c1",
    "unit abbrev": "%",
    "endpoint value": 93.8
  },
  {
    "compound": "O=C(Cc1ccc2c(c1)OCCO2)Nc1nc2ccc(F)cc2s1",
    "unit abbrev": "%",
    "endpoint value": 109
  },
  {
    "compound": "CN(C)CCS(=O)(=O)Nc1cc(-c2ccc3ncc(C#N)c(Nc4ccc(F)c(Cl)c4)c3c2)cnc1Cl",
    "unit abbrev": "%",
    "endpoint value": -17.3
  },
  {
    "compound": "O=C(/C=C/c1sc(Cl)nc1Cl)c1ccccc1",
    "unit abbrev": "%",
    "endpoint value": 94.9
  },
  {
    "compound": "Cc1cccc2c(=O)c3c(sc12)c(NCc1ccccc1)nc1ccccc13",
    "unit abbrev": "%",
    "endpoint value": 104
  },
  {
    "compound": "COc1ccc([C@H]2c3cc(OC)c(OC)cc3C=C(C=O)C2CO)cc1OC (some centres not stated)",
    "unit abbrev": "%",
    "endpoint value": 39.7
  },
  {
    "compound": "CCOC(=O)c1sc2ncc(-c3ccc(C)cc3)n2c1C",
    "unit abbrev": "%",
    "endpoint value": 98.3
  },
  {
    "compound": "COc1ccc(C(=O)/C=C/c2sc(Cl)nc2Cl)cc1",
    "unit abbrev": "%",
    "endpoint value": 72.8
  },
  {
    "compound": "CN(C)CC#Cc1ccc2ncc(C#N)c(Nc3ccc(F)c(Cl)c3)c2c1",
    "unit abbrev": "%",
    "endpoint value": 76
  },
  {
    "compound": "Oc1c(I)cc(I)cc1CNCCCN(Cc1ccccn1)Cc1ccccn1",
    "unit abbrev": "%",
    "endpoint value": -41.5
  },
  {
    "compound": "c1ccc(-c2nc3sc(-c4ccccc4)cn3n2)cc1",
    "unit abbrev": "%",
    "endpoint value": 86
  },
  {
    "compound": "O=C(N/N=C/[C@H](O)[C@@H](O)[C@@H](O)[C@H](O)CO)c1ccc(NC(=O)c2cccnc2)cc1",
    "unit abbrev": "%",
    "endpoint value": 102
  },
  {
    "compound": "COc1cc(/C=C/C(=O)/C=C/c2cc(OC)c3c(c2OC)OCO3)c(OC)c2c1OCO2",
    "unit abbrev": "%",
    "endpoint value": 54.1
  },
  {
    "compound": "CC(=O)OC[C@H]1OC(Sc2sc(C(=O)c3ccc(Br)cc3)c(N)c2-c2nc3ccccc3s2)[C@H](OC(C)=O)[C@@H](OC(C)=O)[C@H]1OC(C)=O (some centres not stated)",
    "unit abbrev": "%",
    "endpoint value": 104
  },
  {
    "compound": "CCOC(=O)C1=C(N)Oc2c(sc3c(C)cccc23)C1c1ccc(F)cc1 (configuration not stated)",
    "unit abbrev": "%",
    "endpoint value": 59.2
  },
  {
    "compound": "COc1ccc(NC2=C(Br)C(=O)C(C)=C(C)C2=O)cc1",
    "unit abbrev": "%",
    "endpoint value": 72.8
  }
]

---

- System: NCI-H226 lung
- experiment notes: NCI-60 one-dose screen, 48 h
- condition set: 10 µM unless noted
The panel holds about 83,000 compounds, 20% with a hit somewhere; the sample as a whole holds those more often. Activity calls are given as the source filed them. Rule for the calls: active = growth percent below 10; inactive = the rest.
Possible outcomes: active, inactive

[
  {
    "compound": "COc1ccc(-c2nc(NN)c3c(C)nn(-c4ccc(F)cc4)c3n2)cc1",
    "assigned class": "inactive"
  },
  {
    "compound": "Cc1cccc(OCC(O)CN2CCN(c3ccc(Cl)cc3)CC2)c1 (configuration not stated)",
    "assigned class": "inactive"
  },
  {
    "compound": "COc1ccc(C(=S)N2CCN(c3cccc(C)c3)CC2)cc1OC",
    "assigned class": "inactive"
  },
  {
    "compound": "O=C(/C=C/c1cccc2ccccc12)c1ccc(NC(=O)c2ccccc2CN2C(=O)c3ccccc3C2=O)cc1",
    "assigned class": "inactive"
  },
  {
    "compound": "Cc1nc(NC(=O)COc2ccc(/C=C3\\Cc4ccc(Cl)cc4C3=O)cc2)sc1C",
    "assigned class": "inactive"
  },
  {
    "compound": "COc1cc(-c2nc3sccn3c2-c2ccnc(NCCCNS(=O)(=O)c3ccc(F)cc3)n2)ccc1F",
    "assigned class": "inactive"
  },
  {
    "compound": "COc1ccc(OC)c(/C=C/c2nnc(Nc3ccccc3)o2)c1",
    "assigned class": "inactive"
  },
  {
    "compound": "O=c1c2cc(F)ccc2sc2c(N3CCCCC3)nc3ccccc3c12",
    "assigned class": "inactive"
  },
  {
    "compound": "O=C1c2cccc3cccc(c23)C(=O)N1Nc1nc(N2CCOCC2)nc(N2CCN(c3ccccc3)CC2)n1",
    "assigned class": "inactive"
  },
  {
    "compound": "Cc1cc(C)c(-c2c(N)cc(Br)cc2Br)c(N)c1",
    "assigned class": "inactive"
  },
  {
    "compound": "COc1ccc(C2NC(=O)C(C#N)c3c2sc2c(F)cccc32)c(OC)c1 (configuration not stated)",
    "assigned class": "inactive"
  },
  {
    "compound": "Cc1cc(O)c(C2=NN(c3ccc(S(N)(=O)=O)cc3)C(c3ccccc3O)C2)cc1Cl (configuration not stated)",
    "assigned class": "active"
  },
  {
    "compound": "NCCCNc1nc2ccccc2c2c(=O)c3cc(C(F)(F)F)ccc3sc12",
    "assigned class": "inactive"
  },
  {
    "compound": "COc1ccc2c(c1OC)C(=O)O[C@H]2[C@H]1c2c(cc3c(c2OC)OCO3)CCN1C",
    "assigned class": "inactive"
  },
  {
    "compound": "CCN1C(=O)N(CC)C2Nn3c(s/c(=C4\\C(=O)N(CCC(C)C)c5ccccc54)c3=O)=NC21 (configuration not stated)",
    "assigned class": "inactive"
  },
  {
    "compound": "NCCCNc1nc2ccccc2c2c(=O)c3cc(OC(F)(F)F)ccc3sc12",
    "assigned class": "inactive"
  },
  {
    "compound": "CC(=O)CC(c1ccccc1)c1c(C)[nH]c2ccccc12 (configuration not stated)",
    "assigned class": "inactive"
  },
  {
    "compound": "COc1ccc(C2C(C#N)=C(N)Oc3c2sc2c(C)cccc32)cc1 (configuration not stated)",
    "assigned class": "inactive"
  },
  {
    "compound": "c1cc(-c2nnc(SSc3ncnc4nc[nH]c34)o2)ccn1",
    "assigned class": "inactive"
  },
  {
    "compound": "COc1cc2cc(Oc3ccc(NC(=O)Nc4ccc(F)c(C(F)(F)F)c4)cc3)c(C)nc2cc1OCCN1CCOCC1",
    "assigned class": "inactive"
  },
  {
    "compound": "Cc1[nH]c(C(=O)Nc2ccc(C(=O)NCCN)cc2OC(C)C)c(Cl)c1Cl",
    "assigned class": "inactive"
  },
  {
    "compound": "CCCCn1c(-c2ccc(-c3nc(-c4ccc(Cl)cc4)no3)cc2)nc(-c2ccccc2)c1-c1ccccc1",
    "assigned class": "inactive"
  },
  {
    "compound": "CCOc1cccc(NC2=C(Br)C(=O)C(C)=C(C)C2=O)c1",
    "assigned class": "inactive"
  },
  {
    "compound": "COc1cccc(-c2nc(-c3ccc(NC(=O)c4ccccc4)cc3)[nH]c2-c2ccnc(Br)c2)c1",
    "assigned class": "inactive"
  },
  {
    "compound": "COc1ccc(S(=O)(=O)n2c3ccccc3n3ncc(-c4nnc(C)o4)c23)cc1",
    "assigned class": "inactive"
  },
  {
    "compound": "Cc1cccc(NCc2cn(-c3ccc(C(=O)O)cc3)nc2-c2ccc(C(=O)O)cc2)n1",
    "assigned class": "inactive"
  },
  {
    "compound": "CCOC(=O)Nc1ccc(-c2nc(-c3cccc(OCCN4CCOCC4)c3)c(-c3ccnc(Br)c3)[nH]2)cc1",
    "assigned class": "inactive"
  },
  {
    "compound": "c1ccc2cc(C[n+]3ccn(CCCCCCn4cc[n+](Cc5ccc6ccccc6c5)c4)c3)ccc2c1",
    "assigned class": "inactive"
  },
  {
    "compound": "CCCCOc1nc2ccc(OC)cc2cc1-c1cc(-c2ccc(Cl)cc2)nc(-c2ccc(Cl)cc2)c1",
    "assigned class": "inactive"
  },
  {
    "compound": "OC(COc1ccccc1Cl)CN1CCN(c2cccc(Cl)c2)CC1 (configuration not stated)",
    "assigned class": "inactive"
  },
  {
    "compound": "CCc1ccccc1-n1c(N)c(C#N)c(-c2ccc(Cl)cc2)c(C#N)c1=O",
    "assigned class": "inactive"
  },
  {
    "compound": "CCOC(=O)c1cnn2c3ccccc3n(S(=O)(=O)c3ccc(OC)cc3)c12",
    "assigned class": "inactive"
  },
  {
    "compound": "COc1cccc(-c2nc(-c3ccc(NS(=O)(=O)c4ccccc4)cc3)[nH]c2-c2ccnc(Br)c2)c1",
    "assigned class": "inactive"
  },
  {
    "compound": "CN1C(=O)CNC(=O)[C@H](NC(=O)c2nc3ccccc3cc2O)CSSC[C@H]1C(=O)NCCc1nc2ccccc2cc1O",
    "assigned class": "inactive"
  },
  {
    "compound": "O=c1c2cc(F)ccc2sc2c(NCCCNCCO)nc3ccc(F)cc3c12",
    "assigned class": "inactive"
  },
  {
    "compound": "O=C(O)c1cn(C2CC2)c2cc(N3CCN(C(=O)Nc4nc(-c5ccccc5)cs4)CC3)c(F)cc2c1=O",
    "assigned class": "inactive"
  },
  {
    "compound": "O=C1CSC(c2c(Cl)cccc2Cl)N1c1nc(Cl)cc(=O)[nH]1 (configuration not stated)",
    "assigned class": "inactive"
  }
]
